// reported IC50 for each item listed
test system: NB1; experiment: cells; assay type: functional, cell-based; settings: Homo sapiens;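 also: reduction of NB1 cell proliferation, read out with a viability assay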
Description: SANGER: Inhibition of human NB1 cell growth in a cell viability assay.
attribute-measured: IC50 (nM)

>>> quantitative_result("CCC(=O)N1CCN(c2ccc(-n3c(=O)ccc4cnc5ccc(-c6cnc7ccccc7c6)cc5c43)cc2C(F)(F)F)CC1 [TORIN1]")
279
>>> quantitative_result("CCC1=C[C@@H]2CN(C1)Cc1c([nH]c3ccccc13)[C@@](C(=O)OC)(c1cc3c(cc1OC)N(C)[C@H]1[C@@](O)(C(=O)OC)[C@H](OC(C)=O)[C@]4(CC)C=CCN5CC[C@]31[C@@H]54)C2 [VINORELBINE]")
26.1

###

test system: H4; test: cells; type: functional, cell-based; settings: Homo sapiens
Description: SANGER: Inhibition of human H4 cell growth in a cell viability assay.
attribute-measured: IC50

>>> result("Cc1cnc(-c2cnc(NCCNc3ccc(C#N)cn3)nc2-c2ccc(Cl)cc2Cl)[nH]1")
"> 2560 nM"
>>> result("CN(c1ncccc1CNc1nc(Nc2ccc3c(c2)CC(=O)N3)ncc1C(F)(F)F)S(C)(=O)=O")
"> 2560 nM"
>>> result("Cn1cc(C2=C(c3ccc(Cl)cc3Cl)C(=O)NC2=O)c2ccccc21")
"> 10000 nM"

###

tested on: D-247MG; test: cells; format: functional, cell-based, Homo sapiens; conditions: Homo sapiens, D-247MG
Description: SANGER: Inhibition of human D-247MG cell growth in a cell viability assay.
attribute-measured: IC50 (µM)

>>> quantitative_result("Nc1ccn([C@@H]2O[C@H](CO)[C@@H](O)[C@@H]2O)c(=O)n1 [CYTARABINE]")
1.09
>>> quantitative_result("Cc1cnc(-c2cnc(NCCNc3ccc(C#N)cn3)nc2-c2ccc(Cl)cc2Cl)[nH]1 [LADUVIGLUSIB]")
0.949
>>> quantitative_result("COC(=O)CNC(=O)C(=O)OC")
2410

###

tested on: OAW-42; assay: cells; assay type: functional, cell-based, Homo sapiens; conditions: Homo sapiens, OAW-42;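 also: growth inhibition of OAW-42 cells, read out with a cell viability assay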
Description: SANGER: Inhibition of human OAW-42 cell growth in a cell viability assay.
pIC50: −log10 of the molar value.
attribute-measured: pIC50

>>> result("CN(Cc1cnc2nc(N)nc(N)c2n1)c1ccc(C(=O)N[C@@H](CCC(=O)O)C(=O)O)cc1 [METHOTREXATE]")
"< 6.70"
>>> result("CC(=O)O[C@@]12CO[C@@H]1C[C@H](O)[C@@]1(C)C(=O)[C@H](O)C3=C(C)[C@@H](OC(=O)[C@H](O)[C@@H](NC(=O)OC(C)(C)C)c4ccccc4)C[C@@](O)([C@@H](OC(=O)c4ccccc4)[C@H]21)C3(C)C")
"< 8.00"
>>> result("Cc1cnc(-c2cnc(NCCNc3ccc(C#N)cn3)nc2-c2ccc(Cl)cc2Cl)[nH]1")
"< 5.59"
>>> result("C[C@]1(O)C[C@@H](c2nc(-c3ccc4ccc(-c5ccccc5)nc4c3)c3c(N)nccn32)C1")
"< 5.59"
>>> result("O=C(c1cc(Cc2n[nH]c(=O)c3ccccc23)ccc1F)N1CCN(C(=O)C2CC2)CC1")
"< 5.30"

###

test system: LC-2-ad; test: cells; format: functional, cell-based, Homo sapiens; settings: Homo sapiens, LC-2-ad
Description: SANGER: Inhibition of human LC-2-ad cell growth in a cell viability assay.
pIC50: −log10 of the molar value.
// reported pIC50 for each item listed
attribute-measured: pIC50

>>> result("O=C(c1cc(Cc2n[nH]c(=O)c3ccccc23)ccc1F)N1CCN(C(=O)C2CC2)CC1 [OLAPARIB]")
"< 5.30"
>>> result("O=C(NOCC1CC1)c1ccc(F)c(F)c1Nc1ccc(I)cc1Cl [CI-1040]")
"< 5.00"
>>> result("O=C(/C=C/c1ccccc1)NC(NC(=S)Nc1cccc2cccnc12)C(Cl)(Cl)Cl (stereo not drawn) [SALUBRINAL]")
"< 4.80"
